# TESTED ON: glucagon receptor (GCGR) (human, UniProt P47871 26-477)
# Sequence (P47871 26-477): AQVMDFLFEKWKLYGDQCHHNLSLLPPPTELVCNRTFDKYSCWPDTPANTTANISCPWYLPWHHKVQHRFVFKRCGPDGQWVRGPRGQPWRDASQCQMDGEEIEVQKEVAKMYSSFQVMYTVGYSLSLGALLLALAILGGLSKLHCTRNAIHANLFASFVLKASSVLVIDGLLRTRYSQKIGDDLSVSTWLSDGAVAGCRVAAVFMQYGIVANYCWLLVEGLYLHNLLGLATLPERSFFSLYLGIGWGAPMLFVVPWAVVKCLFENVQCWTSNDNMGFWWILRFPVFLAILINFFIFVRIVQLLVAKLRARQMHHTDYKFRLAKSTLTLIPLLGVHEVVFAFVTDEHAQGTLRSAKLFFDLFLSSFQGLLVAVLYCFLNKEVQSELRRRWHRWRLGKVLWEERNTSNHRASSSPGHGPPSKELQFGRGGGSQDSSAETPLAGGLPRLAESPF
# ASSAY EXPLANATION: cell-based or functional assay
Starred links: 1 amine or outer side, 2 acyl side, 3 side chain; linkers in the order of their positions; H or OH if unused. Non-standard residues stand in square brackets, D forms with d. Groups on a side chain read outwards from the residue. Primed or numbered codes have the meaning given here. No end group written: not given here. *: point of attachment. γGlu = O=C(O)[C@H](CCC(=O)[*:2])N[*:1]; Stearoyl = CCCCCCCCCCCCCCCCCC(=O)*; αMeF = C[C@](N)(Cc1ccccc1)C(=O)O; αMeK = C[C@](N)(CCCCN)C(=O)O; Lauroyl = CCCCCCCCCCCC(=O)*; αMeS = C[C@](N)(CO)C(=O)O; PEG2′ = not defined here; Aib = CC(C)(N)C(=O)O
The entries below come with measured cAMP Primary assay EC50 Gluc-R (2nd) values attached.
QUANTITY NAME: cAMP Primary assay EC50 Gluc-R (2nd) (nM)

> print(dat)
                                     binder                         quantity.name  unit.of.measure  endpoint.result
1  H[Aib]EGS[αMeF]TSDV[αMeS]S[αMeF]LEGEAK([PEG2′-PEG2′-γGlu-Stearoyl])[αMeK]E[αMeF]IA[αMeF]VV[αMeK]GG-NH2 [SEQ ID NO 110]  cAMP Primary assay EC50 Gluc-R (2nd)               nM               25
2  H[Aib]EGS[αMeF]TSDV[αMeS]S[αMeF]LEK([PEG2′-PEG2′-γGlu-Stearoyl])EAA[αMeK]E[αMeF]IA[αMeF]VV[αMeK]GG-NH2 [SEQ ID NO 113]  cAMP Primary assay EC50 Gluc-R (2nd)               nM             24.9
3  H[Aib]EGS[αMeF]TSDV[αMeS]S[αMeF]LEGEAAK([PEG2′-PEG2′-PEG2′-Lauroyl])E[αMeF]IA[αMeF]VV[αMeK]GG-NH2 [SEQ ID NO 136]  cAMP Primary assay EC50 Gluc-R (2nd)               nM               26

src = patent US20200079833A1
